# TEST TARGET: Amine oxidase [flavin-containing] A (Homo sapiens)
# Sequence (P21397 whole entry): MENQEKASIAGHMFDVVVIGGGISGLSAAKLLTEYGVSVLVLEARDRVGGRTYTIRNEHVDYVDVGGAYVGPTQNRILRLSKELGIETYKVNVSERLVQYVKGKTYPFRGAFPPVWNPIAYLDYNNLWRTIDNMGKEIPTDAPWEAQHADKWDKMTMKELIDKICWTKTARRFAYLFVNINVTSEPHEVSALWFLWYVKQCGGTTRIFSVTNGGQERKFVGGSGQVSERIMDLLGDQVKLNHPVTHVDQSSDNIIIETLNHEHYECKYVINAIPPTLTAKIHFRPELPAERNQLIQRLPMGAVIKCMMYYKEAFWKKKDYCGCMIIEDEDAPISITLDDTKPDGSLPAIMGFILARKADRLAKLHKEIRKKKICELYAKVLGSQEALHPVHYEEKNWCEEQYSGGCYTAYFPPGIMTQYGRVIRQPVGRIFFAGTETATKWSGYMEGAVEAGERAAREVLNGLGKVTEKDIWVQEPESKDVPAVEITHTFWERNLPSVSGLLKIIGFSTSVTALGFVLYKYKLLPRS
# EXPERIMENT NOTES: Inhibition of recombinant human MAO- A using p-tyramine as substrate preincubated with enzyme for 15 mins followed incubation with substrate for 20 mins by Amplex red reagent based fluorescence based analysis
pIC50: −log10 of the molar value.
EXPERIMENTAL READOUT: pIC50

SMILES STR | EXPERIMENTAL READOUT | MEAS VALUE
O=C(NC1CCN(Cc2ccccc2)CC1)c1coc2ccc(OCc3ccccc3)cc2c1=O | pIC50 | 4.94
O=C(NCCC1CCN(Cc2ccccc2)CC1)c1coc2ccc(OCc3ccccc3)cc2c1=O | pIC50 | 4.17

----------
# EXPERIMENT NOTES: in vitro
# CONDITION INFO: PAMPA
Papp at 16 h values for the compounds below.

SMILES STR | U | Papp at 16 h
O=C(NCCC1CCN(Cc2ccccc2)CC1)c1coc2ccc(OCc3ccccc3)cc2c1=O | ×10⁻⁶ cm/s | 5.4
O=C(NC1CCN(Cc2ccccc2)CC1)c1coc2ccc(OCc3ccccc3)cc2c1=O | ×10⁻⁶ cm/s | 4.6
COc1ccc2occ(C(=O)NCCC3CCN(Cc4ccccc4)CC3)c(=O)c2c1 | ×10⁻⁶ cm/s | 16.7
O=C(NC1CCN(Cc2ccccc2)CC1)c1coc2ccccc2c1=O | ×10⁻⁶ cm/s | 15.6

----------
# EXPERIMENT NOTES: Selectivity index, ratio of IC50 for equine serum BuChE to IC50 for electric eel AChE by Ellman's method
We'd kindly ask you to apply these Ratio IC50 classes: L: < 6; M: ≥ 6 and < 9; H: ≥ 9

SMILES STR | CATEGORY
O=C(NCCC1CCN(Cc2ccccc2)CC1)c1coc2ccc(Br)cc2c1=O | H
O=C(NC1CCN(Cc2ccccc2)CC1)c1coc2cc(Br)ccc2c1=O | L
COc1ccc2occ(C(=O)NC3CCN(Cc4ccccc4)CC3)c(=O)c2c1 | L
COc1ccc2c(=O)c(C(=O)NCCC3CCN(Cc4ccccc4)CC3)coc2c1 | L
COc1ccc2occ(C(=O)NCCC3CCN(Cc4ccccc4)CC3)c(=O)c2c1 | H
O=C(NCCC1CCN(Cc2ccccc2)CC1)c1coc2ccccc2c1=O | M
O=C(NCCC1CCN(Cc2ccccc2)CC1)c1coc2cc(Br)ccc2c1=O | H
O=C(NC1CCN(Cc2ccccc2)CC1)c1cc(=O)c2ccccc2o1 | M
O=C(NCCC1CCN(Cc2ccccc2)CC1)c1cc(=O)c2ccccc2o1 | L
O=C(NC1CCN(Cc2ccccc2)CC1)c1coc2ccc(OCc3ccccc3)cc2c1=O | M
COc1ccc2c(=O)c(C(=O)NC3CCN(Cc4ccccc4)CC3)coc2c1 | M
O=C(NC1CCN(Cc2ccccc2)CC1)c1coc2ccccc2c1=O | M
O=C(NCCC1CCN(Cc2ccccc2)CC1)c1coc2ccc(OCc3ccccc3)cc2c1=O | H
Cc1ccc2occ(C(=O)NCCC3CCN(Cc4ccccc4)CC3)c(=O)c2c1 | M

----------
# Species on record: Homo sapiens
# EXPERIMENT NOTES: Selectivity for recombinant human MAO-B over recombinant human MAO-A
EXPERIMENTAL READOUT: Selectivity ratio

SMILES STR | EXPERIMENTAL READOUT | MEAS VALUE
O=C(NCCC1CCN(Cc2ccccc2)CC1)c1coc2ccccc2c1=O | Selectivity ratio | < 2.8
Cc1ccc2occ(C(=O)NCCC3CCN(Cc4ccccc4)CC3)c(=O)c2c1 | Selectivity ratio | > 1.9
O=C(NCCC1CCN(Cc2ccccc2)CC1)c1coc2ccc(OCc3ccccc3)cc2c1=O | Selectivity ratio | 247
O=C(NC1CCN(Cc2ccccc2)CC1)c1coc2cc(Br)ccc2c1=O | Selectivity ratio | > 5.1
O=C(NC1CCN(Cc2ccccc2)CC1)c1coc2ccc(OCc3ccccc3)cc2c1=O | Selectivity ratio | 211
Cc1ccc2occ(C(=O)NC3CCN(Cc4ccccc4)CC3)c(=O)c2c1 | Selectivity ratio | > 5.1
COc1ccc2c(=O)c(C(=O)NC3CCN(Cc4ccccc4)CC3)coc2c1 | Selectivity ratio | > 3.5
COc1ccc2c(=O)c(C(=O)NCCC3CCN(Cc4ccccc4)CC3)coc2c1 | Selectivity ratio | > 3.2
O=C(NCCC1CCN(Cc2ccccc2)CC1)c1cc(=O)c2ccccc2o1 | Selectivity ratio | > 4.9
O=C(NCCC1CCN(Cc2ccccc2)CC1)c1coc2cc(Br)ccc2c1=O | Selectivity ratio | > 3.4
O=C(NC1CCN(Cc2ccccc2)CC1)c1coc2ccc(Br)cc2c1=O | Selectivity ratio | > 4.4
O=C(NCCC1CCN(Cc2ccccc2)CC1)c1coc2ccc(Br)cc2c1=O | Selectivity ratio | > 3.8
O=C(NC1CCN(Cc2ccccc2)CC1)c1coc2ccccc2c1=O | Selectivity ratio | < 5.6
COc1ccc2occ(C(=O)NC3CCN(Cc4ccccc4)CC3)c(=O)c2c1 | Selectivity ratio | > 2.1
COc1ccc2occ(C(=O)NCCC3CCN(Cc4ccccc4)CC3)c(=O)c2c1 | Selectivity ratio | < 8.9
O=C(NC1CCN(Cc2ccccc2)CC1)c1cc(=O)c2ccccc2o1 | Selectivity ratio | > 3.1

----------
IC50 values for the molecules below.
# TEST TARGET: Amine oxidase [flavin-containing] B (Homo sapiens, UniProt P27338)
# Sequence (P27338 whole entry): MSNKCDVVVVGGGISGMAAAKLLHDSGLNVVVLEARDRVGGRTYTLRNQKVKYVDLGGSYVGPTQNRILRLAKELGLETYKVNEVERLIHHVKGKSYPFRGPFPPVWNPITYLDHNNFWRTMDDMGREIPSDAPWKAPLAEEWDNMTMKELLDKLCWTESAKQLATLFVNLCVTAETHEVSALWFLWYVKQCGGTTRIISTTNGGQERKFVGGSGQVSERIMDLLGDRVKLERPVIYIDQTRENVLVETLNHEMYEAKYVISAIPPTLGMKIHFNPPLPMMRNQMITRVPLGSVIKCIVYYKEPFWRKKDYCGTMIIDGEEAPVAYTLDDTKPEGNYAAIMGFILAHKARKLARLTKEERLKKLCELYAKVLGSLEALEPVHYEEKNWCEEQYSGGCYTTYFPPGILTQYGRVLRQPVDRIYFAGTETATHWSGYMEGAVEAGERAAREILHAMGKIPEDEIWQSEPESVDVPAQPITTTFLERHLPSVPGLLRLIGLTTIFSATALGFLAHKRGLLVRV
EXPERIMENTAL READOUT: IC50 (µM)

SMILES STR | EXPERIMENTAL READOUT | MEAS VALUE
O=C(NCCC1CCN(Cc2ccccc2)CC1)c1coc2ccc(Br)cc2c1=O | IC50 | 26.1
COc1ccc2occ(C(=O)NC3CCN(Cc4ccccc4)CC3)c(=O)c2c1 | IC50 | 46.3
O=C(NC1CCN(Cc2ccccc2)CC1)c1cc(=O)c2ccccc2o1 | IC50 | 33.3
COc1ccc2c(=O)c(C(=O)NCCC3CCN(Cc4ccccc4)CC3)coc2c1 | IC50 | 30.9
Cc1ccc2occ(C(=O)NC3CCN(Cc4ccccc4)CC3)c(=O)c2c1 | IC50 | 19.5
O=C(NCCC1CCN(Cc2ccccc2)CC1)c1coc2cc(Br)ccc2c1=O | IC50 | 29.5
O=C(NCCC1CCN(Cc2ccccc2)CC1)c1cc(=O)c2ccccc2o1 | IC50 | 20
COc1ccc2c(=O)c(C(=O)NC3CCN(Cc4ccccc4)CC3)coc2c1 | IC50 | 28.6
COc1ccc2occ(C(=O)NCCC3CCN(Cc4ccccc4)CC3)c(=O)c2c1 | IC50 | 11.2
Cc1ccc2occ(C(=O)NCCC3CCN(Cc4ccccc4)CC3)c(=O)c2c1 | IC50 | 52.5
O=C(NC1CCN(Cc2ccccc2)CC1)c1coc2ccc(OCc3ccccc3)cc2c1=O | IC50 | 0.035
O=C(NCCC1CCN(Cc2ccccc2)CC1)c1coc2ccccc2c1=O | IC50 | 35.3
O=C(NC1CCN(Cc2ccccc2)CC1)c1coc2ccccc2c1=O | IC50 | 17.7
O=C(NC1CCN(Cc2ccccc2)CC1)c1coc2cc(Br)ccc2c1=O | IC50 | 19.7
O=C(NCCC1CCN(Cc2ccccc2)CC1)c1coc2ccc(OCc3ccccc3)cc2c1=O | IC50 | 0.272
O=C(NC1CCN(Cc2ccccc2)CC1)c1coc2ccc(Br)cc2c1=O | IC50 | 22.8

----------
pIC50 values for the molecules below.
# TEST TARGET: Cholinesterase (Equus caballus, UniProt P81908)
# Sequence (P81908 whole entry): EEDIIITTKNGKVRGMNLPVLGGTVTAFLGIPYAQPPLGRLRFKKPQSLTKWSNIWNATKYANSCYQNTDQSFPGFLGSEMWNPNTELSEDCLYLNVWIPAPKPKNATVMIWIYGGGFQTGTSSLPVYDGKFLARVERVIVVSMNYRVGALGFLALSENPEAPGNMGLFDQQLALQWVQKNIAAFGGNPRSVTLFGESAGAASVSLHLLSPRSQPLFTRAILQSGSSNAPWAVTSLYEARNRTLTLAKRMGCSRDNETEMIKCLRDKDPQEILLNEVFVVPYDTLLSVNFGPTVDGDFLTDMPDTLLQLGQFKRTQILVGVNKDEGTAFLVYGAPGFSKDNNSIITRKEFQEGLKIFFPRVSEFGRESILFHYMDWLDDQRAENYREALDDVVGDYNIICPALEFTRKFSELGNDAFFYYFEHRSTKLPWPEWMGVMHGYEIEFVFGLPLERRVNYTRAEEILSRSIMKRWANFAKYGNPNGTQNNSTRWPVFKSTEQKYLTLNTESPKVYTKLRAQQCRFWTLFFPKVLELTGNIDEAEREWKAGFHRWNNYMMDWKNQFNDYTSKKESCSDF
# EXPERIMENT NOTES: Inhibition of equine serum BuChE using butyrylthiocholine iodide as substrate preincubated with enzyme for 6 mins followed by substrate addition and measured for 180 secs by Ellman's method
pIC50: −log10 of the molar value.

SMILES STR | TEST TARGET | pIC50
O=C(NC1CCN(Cc2ccccc2)CC1)c1coc2ccc(OCc3ccccc3)cc2c1=O | Cholinesterase (Equus caballus, UniProt P81908) | 4.91
O=C(NCCC1CCN(Cc2ccccc2)CC1)c1coc2cc(Br)ccc2c1=O | Cholinesterase (Equus caballus, UniProt P81908) | 5.91
O=C(NC1CCN(Cc2ccccc2)CC1)c1coc2ccc(Br)cc2c1=O | Cholinesterase (Equus caballus, UniProt P81908) | 5.02
Cc1ccc2occ(C(=O)NCCC3CCN(Cc4ccccc4)CC3)c(=O)c2c1 | Cholinesterase (Equus caballus, UniProt P81908) | 6.04
COc1ccc2c(=O)c(C(=O)NC3CCN(Cc4ccccc4)CC3)coc2c1 | Cholinesterase (Equus caballus, UniProt P81908) | 5.01
O=C(NCCC1CCN(Cc2ccccc2)CC1)c1coc2ccc(Br)cc2c1=O | Cholinesterase (Equus caballus, UniProt P81908) | 5.93
